Experiment description: chemical genetic growth profiling, strain panel (AID 1159580);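 note: tested at 20 µM; growth read once vehicle control cultures reached saturation at 30 °C; 1 = growth at the plate median or of vehicle wells; lower values mean less growth of the strain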
Condition parameters: S. cerevisiae deletion strains, growth OD, locus YNL207W, strain RIO2, active compounds read low
Hit rate of the full screen: of about 5,500 compounds, about 2,000 (36%) were called active. Not shown: some 18% with an inconclusive outcome. This is one part of the list.
Endpoint label: normalized growth
// return just the number, without any unit appended

State its normalized growth for this compound: CC1C/C(=N/Nc2ccc(Br)cc2)c2cc(Cl)ccc2S1 (stereo unspecified)
0.624

State its normalized growth for this compound: COc1ccc(CC2CCC(=NOC(=O)c3ccc(C(C)(C)C)cc3)CC2)cc1 (stereo unspecified)
0.973

State its normalized growth for this compound: O=C1CSC(c2ccc(C(F)(F)F)cc2)N1c1ccc(C(F)(F)F)cc1 (stereo unspecified)
0.995

State its normalized growth for this compound: COc1ccc(OC)c(-c2ccn[nH]2)c1OCc1ccccc1
0.997

State its normalized growth for this compound: Cc1ccc(N2C(=O)CSC2c2ccc(Cl)c(Cl)c2)cc1Cl (stereo unspecified)
0.968

State its normalized growth for this compound: O=[N+]([O-])c1ccc(-c2csc(Nc3ccncc3)n2)cc1
0.984

---

Experiment description: chemical genetic growth profiling, strain panel (AID 1159580);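 note: tested at 20 µM; growth read once vehicle control cultures reached saturation at 30 °C; 1 = growth at the plate median or of vehicle wells; lower values mean less growth of the strain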
Condition parameters: S. cerevisiae deletion strains, growth OD, locus YBR171W, strain sec66, active compounds read low
The whole screen tested about 5,500 compounds, of which about 2,000 (36%) were called active. Inconclusive results (about 18%) are left out. This is one part of the list.
Endpoint label: normalized growth
// return just the number, without any unit appended

State its normalized growth for this compound: Cc1nc2ccccn2c(=O)c1CCN1CCC(C(=O)c2ccc(F)cc2)CC1
0.981

State its normalized growth for this compound: C=C1C2CCC3(C)C(c4ccoc4)OC(=O)CC13OC1CC(OC(C)=O)C(C)(C)C(CC(=O)OC)C12C (configuration not stated)
1.01

State its normalized growth for this compound: O=C(O)CCCOc1ccc(Cl)cc1Cl
0.888

State its normalized growth for this compound: OC[C@H]1OC([S-])[C@H](O)[C@@H](O)[C@@H]1O.[Au+] (some centres not stated)
1.01

State its normalized growth for this compound: COc1cc(OC)c(OC)cc1C=O
0.991

State its normalized growth for this compound: CCCCCC1C(=O)CCC1CC(=O)OC (configuration not stated)
0.96

State its normalized growth for this compound: CN(C)CCOC(=O)C(c1ccccc1)C1(O)CCCC1 (configuration not stated)
0.97

State its normalized growth for this compound: COC(=O)CCCOc1ccc(Cl)cc1Cl
0.916

State its normalized growth for this compound: CC(CCC(=O)O)[C@H]1CCC2C3C(C[C@H](O)[C@@]21C)[C@@]1(C)CC[C@@H](O)C[C@H]1C[C@H]3O (some centres not stated)
1.02

State its normalized growth for this compound: N[C@H](Cc1ccccc1)C(=O)O
0.99

State its normalized growth for this compound: CC(=O)OCC(=O)[C@@]1(O)[C@H](OC(C)=O)CC2C3CCC4=CC(=O)C=C[C@]4(C)[C@@]3(F)[C@@H](O)C[C@@]21C (some centres not stated)
0.985

State its normalized growth for this compound: CNCCCN1c2ccccc2CCc2ccccc21
1.03

State its normalized growth for this compound: NC(=O)c1ncn(C2O[C@H](CO)[C@@H](O)[C@H]2O)c1N (some centres not stated)
1.05

State its normalized growth for this compound: COc1cc(S(C)=O)ccc1-c1nc2ncccc2[nH]1 (configuration not stated)
0.977

State its normalized growth for this compound: CO[C@]12C[C@@H](COC(=O)c3cncc(Br)c3)CN(C)[C@@H]1Cc1cn(C)c3cccc2c13
0.983

State its normalized growth for this compound: CCN(CC)C(C)CN1c2ccccc2Sc2ccccc21 (configuration not stated)
0.998

State its normalized growth for this compound: CN(C)CCOC(=O)COc1ccc(Cl)cc1
0.969

State its normalized growth for this compound: CC(CCC(=O)O)[C@H]1CCC2C3CC[C@@H]4C[C@H](O)CC[C@]4(C)C3CC[C@@]21C (some centres not stated)
1.01

State its normalized growth for this compound: CC(CCC(=O)O)[C@H]1CCC2C3CC[C@@H]4CCCC[C@]4(C)C3CC[C@@]21C (some centres not stated)
1.02

State its normalized growth for this compound: N#C/C(=C\c1cccc(O)c1)C(=O)O
0.995

State its normalized growth for this compound: COc1ccc(C(=O)N2CCCC2=O)cc1
0.96

State its normalized growth for this compound: CC(CN(C)C)CN1c2ccccc2CCc2ccccc21 (configuration not stated)
0.963

State its normalized growth for this compound: O=c1cc(-c2ccccc2)oc2cc(O)c(O)cc12
0.974

State its normalized growth for this compound: CCCCCC1C(=O)CCC1CC(=O)O (configuration not stated)
1

State its normalized growth for this compound: N[C@H](Cc1cc(I)c(Oc2ccc(O)c(I)c2)c(I)c1)C(=O)O
0.996

State its normalized growth for this compound: CN1CCN(C2=Nc3ccccc3Oc3ccc(Cl)cc32)CC1
0.964

State its normalized growth for this compound: O=c1cc(-c2cc(O)c(O)c(O)c2)oc2cc(O)cc(O)c12
1

State its normalized growth for this compound: COc1ccc(C(=O)CC(=O)c2ccc(C(C)(C)C)cc2)cc1
1.03

State its normalized growth for this compound: O=c1cc(-c2ccc(O)cc2)oc2cc(O)cc(O)c12
0.997

State its normalized growth for this compound: C=C1C2=CC(=O)O[C@@H](c3ccoc3)[C@]2(C)CCC1[C@@]1(C)C=CC(=O)C(C)(C)[C@@H]1CC(=O)OC (some centres not stated)
0.983

State its normalized growth for this compound: COc1c2ccoc2nc2c(OC)c(OCC(O)C(C)(C)O)ccc12 (configuration not stated)
1.02

State its normalized growth for this compound: C[C@H](CCC(=O)O)[C@H]1CCC2C3C(CC[C@@]21C)[C@@]1(C)CC[C@@H](O)C[C@H]1C[C@@H]3O (some centres not stated)
0.961

State its normalized growth for this compound: CC[C@H](CCC(C)[C@H]1CCC2C3CCC4C[C@@H](O)CC[C@]4(C)C3CC[C@@]21C)C(C)C (some centres not stated)
0.976

State its normalized growth for this compound: C=C1C(C2(C)C=CC(=O)C(C)(C)C2CC(=O)OC)CC[C@@]2(C)[C@H](c3ccoc3)OC(=O)C3OC132 (some centres not stated)
0.954

State its normalized growth for this compound: NC(Cc1ccc(F)cc1)C(=O)O (configuration not stated)
1.03

State its normalized growth for this compound: CC1(C)C(O)CC(O)C2(C)C1CC(O)C1(C)C2CCC2(C)C(c3ccoc3)OC(=O)C3OC321 (configuration not stated)
0.988

State its normalized growth for this compound: CCCCS(=N)(=O)CCC(N)C(=O)O (configuration not stated)
0.999

State its normalized growth for this compound: Clc1ccc2c(c1)C(N1CCNCC1)=Nc1ccccc1O2
0.991

State its normalized growth for this compound: C=C1C2CC[C@@]3(C)[C@H](c4ccoc4)OC(=O)C[C@]13O[C@H]1CC(O)C(C)(C)C(CC(=O)OC)[C@@]21C (some centres not stated)
0.98

State its normalized growth for this compound: CC(CN1c2ccccc2Sc2ccccc21)N(C)C (configuration not stated)
0.988

State its normalized growth for this compound: O=c1cc(-c2ccc(O)cc2)oc2cc(O)ccc12
0.981

State its normalized growth for this compound: O=C(O)CCC(=O)Nc1ccc(S(=O)(=O)Nc2nccs2)cc1
0.997
